Where these numbers come from: patent US6790971B1

# Tested on: MCF-7 mammary tumoral cells
# MEASUREMENT DESCRIPTION: Anti-proliferative activity upon the growth of MCF-7 cells (DNA measurement with DABA)
# Assay type: cell-based
# EXPERIMENTAL CONDITIONS: 6 days, inhibition of the increase of DNA, read-out: concentration which inhibited the growth of MCF7 to an extent of 50% (IC50)
ATTRIBUTE MEASURED: pIC50
Reminder that pIC50 means the negative base-10 logarithm of the concentration expressed in mol/L.

pIC50 in this record for CCCCN(C)C(=S)CCCCCCCOc1ccc([C@H]2C[C@]3(C)[C@@H](O)CC[C@H]3[C@@H]3CCc4cc(O)ccc4[C@H]32)cc1 [Example 79] : 10.46

Sample CCCCN(C)C(=O)COCCCCCCOc1ccc([C@H]2C[C@]3(C)[C@@H](O)CC[C@H]3[C@@H]3CCc4cc(O)ccc4[C@H]32)cc1 [Example 83] ; pIC50 observed: 11.15

Noted for CCCCN(C)C(=O)CCCCCCCCCCC[C@H]1C[C@]2(C)[C@@H](O)CC[C@H]2[C@@H]2CCc3cc(O)ccc3[C@@H]12 [Example 24] : its pIC50 reads 10.22

Kindly note the recorded pIC50 for CCCCN(C)C(=O)COCCCCCOc1ccc([C@H]2C[C@]3(C)[C@@H](O)CC[C@H]3[C@@H]3CCc4cc(O)ccc4[C@H]32)cc1 [Example 43] , which is 11.70

Measured pIC50, CCCCN(C)C(=O)CCCCCCCc1ccc([C@H]2C[C@]3(C)[C@@H](O)CC[C@H]3[C@@H]3CCc4cc(O)ccc4[C@H]32)cc1 [Example 8] : 10.40

So for CCCCN(C)C(=O)COCCCCCC#Cc1ccc([C@H]2C[C@]3(C)[C@@H](O)CC[C@H]3[C@@H]3CCc4cc(O)ccc4[C@H]32)cc1 [Example 37] , the logged pIC50 turned out to be 10.52

Lab note: measured pIC50 of CC(C)N(C)C(=O)CCCCCCCCCC[C@H]1C[C@]2(C)[C@@H](O)CC[C@H]2[C@@H]2CCc3cc(O)ccc3[C@@H]12 [Example 16] was 10.70

pIC50 for CC(C)N(C)C(=O)COCCCCCCCC[C@H]1C[C@]2(C)[C@@H](O)CC[C@H]2[C@@H]2CCc3cc(O)ccc3[C@@H]12 [Example 71] is 10.00

Lab note: measured pIC50 of CCCCN(C)C(=O)CSCCCCCc1ccc([C@H]2C[C@]3(C)[C@@H](O)CC[C@H]3[C@@H]3CCc4cc(O)ccc4[C@H]32)cc1 [Example 86] was 11.05

# pIC50 of CN(CC(F)(F)C(F)(F)C(F)(F)F)C(=O)CCCCCCCOc1ccc([C@H]2C[C@]3(C)[C@@H](O)CC[C@H]3[C@@H]3CCc4cc(O)ccc4[C@H]32)cc1 [Example 82] = 10.70
